Parameter EC50(pM), cell agonistic activity (cAMP, HTRF): see the listing below.
Target: T1, human GIP receptor (glucose-dependent insulinotropic peptide receptor, GIPR) (human, UniProt P48546 22-466)
T1 sequence (looked up): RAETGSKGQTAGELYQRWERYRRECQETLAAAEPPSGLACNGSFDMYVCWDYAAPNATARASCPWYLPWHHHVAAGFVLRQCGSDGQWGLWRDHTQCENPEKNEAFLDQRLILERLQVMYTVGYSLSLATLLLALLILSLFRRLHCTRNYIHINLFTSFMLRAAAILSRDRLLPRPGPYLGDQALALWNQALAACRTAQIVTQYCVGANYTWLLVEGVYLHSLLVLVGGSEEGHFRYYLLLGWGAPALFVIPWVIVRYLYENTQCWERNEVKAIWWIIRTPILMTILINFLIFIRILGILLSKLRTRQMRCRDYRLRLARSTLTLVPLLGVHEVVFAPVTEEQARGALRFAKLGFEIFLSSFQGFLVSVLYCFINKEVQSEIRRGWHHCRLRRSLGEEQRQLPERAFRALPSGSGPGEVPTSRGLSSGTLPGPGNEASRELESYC
Assay: cell-based or functional assay
Non-standard residues stand in square brackets, D forms with d. No end group written: not given here. Aib = CC(C)(N)C(=O)O
Give a bare numeral; the unit pM is implied.

Please review the entries below; each comes with its answer.
# Binder, Readout value
measured = [
    ("Y[Aib]EGTFISDYSIALDRLHQQDFVKWLLAQRG [Sequence 17 (Seq ID. 17)]", 58.2),
    ("Y[Aib]EGTFISDYSIALDKIHQEDFVKWLLAQKG [Sequence 3 (Seq ID. 3)]", 3.41),
]

Kindly review the next binder as well.
In: Given the entry Y[Aib]EGTFISDYSIALDRLHQEDFVNWLLAQKG [Sequence 16 (Seq ID. 16)] , report its measured EC50(pM), cell agonistic activity (cAMP, HTRF).
Out: 25.5

src = patent US20240239863A1
